Target: isolated enzyme (extracts of A×20) (Corynebacterium striatum, UniProt Q8GGD4)
Construct: an enzyme may be isolated from cellular extracts obtained from wild-type bacterial strains; endogenous in cells; host or cells: Corynebacterium striatum Ax20 (DSM 14267), mechanically disrupted; crude extract or chromatographically purified enzyme
Sequence (Q8GGD4 2-400): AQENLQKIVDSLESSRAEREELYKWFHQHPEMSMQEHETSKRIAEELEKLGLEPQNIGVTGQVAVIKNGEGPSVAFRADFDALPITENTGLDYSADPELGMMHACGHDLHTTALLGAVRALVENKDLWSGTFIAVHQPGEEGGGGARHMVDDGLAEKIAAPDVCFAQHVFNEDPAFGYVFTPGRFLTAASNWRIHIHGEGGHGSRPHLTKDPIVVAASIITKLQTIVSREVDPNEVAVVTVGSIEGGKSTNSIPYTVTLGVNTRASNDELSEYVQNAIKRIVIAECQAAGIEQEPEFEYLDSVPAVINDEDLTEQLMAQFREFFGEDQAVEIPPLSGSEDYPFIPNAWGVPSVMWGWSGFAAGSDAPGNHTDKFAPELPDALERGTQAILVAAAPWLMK
Test: Low throughput screening for inhibitors, isolated enzyme (released lauric acid by GC)
Format: biochemical
Conditions: 5 mM; substrate Nα-lauroyl-L-glutamine, 2 h

>  <Compound>
O=C(O)CNCCNCC(=O)O

>  <% inhibition of the isolated enzyme / %>
100

$$$$
>  <Compound>
O=P(O)(O)CN(CP(=O)(O)O)CP(=O)(O)O

>  <% inhibition of the isolated enzyme / %>
76.6

$$$$
>  <Compound>
CCC(NCCNC(CC)C(=O)O)C(=O)O (stereo not shown)

>  <% inhibition of the isolated enzyme / %>
44.3

$$$$
>  <Compound>
c1cnc2c(c1)ccc1cccnc12

>  <% inhibition of the isolated enzyme / %>
100

$$$$
